Taken from ChEMBL document CHEMBL4513216.

system: Plasmodium berghei; test: Screen against P. berghei liver stage (PbLuc), transformed with Luciferase, at 2uM; assay type: functional, HepG2; conditions: tested at 2 uM
In all, about 68,000 compounds went through this assay and about 2,700 (4%) showed an effect of 50% or more. This excerpt belongs to a sample that is enriched for strong results.
PROPERTY LABEL: INHIBITION (%)
Report only the number, with the unit % understood.

Worked set:
- COMPOUND: "COc1cc(OC)cc(C(=O)NCc2nn(C)c3c2COCC3)c1"
  TGT: "Plasmodium berghei"
  INHIBITION [%]: -63.73
- COMPOUND: "CN1CCCC(CCC(=O)NCCCn2ncc3ccccc32)C1 (configuration not stated)"
  TGT: "Plasmodium berghei"
  INHIBITION [%]: 46.95
- COMPOUND: "N#CC1(C(=O)N2CCCN(Cc3cscn3)CC2)CCCCC1"
  TGT: "Plasmodium berghei"
  INHIBITION [%]: 7.71
- COMPOUND: "Cc1n[nH]c2c1C(c1ccncc1)SCC(=O)N2 (configuration not stated)"
  TGT: "Plasmodium berghei"
  INHIBITION [%]: 19.08
- COMPOUND: "Cc1ccnc(C2CCN(C(=O)c3cnn(C)c3)CC2)n1"
  TGT: "Plasmodium berghei"
  INHIBITION [%]: 11.74

Request: Recall the recorded INHIBITION for CCc1cnc(NCC(c2ccncc2)N2CCOCC2)nc1 (configuration not stated) with Plasmodium berghei and state it.
Response: 0.12

Request: Recall the recorded INHIBITION for Cc1n[nH]c2c1C(c1ccc(Cl)cc1)SCC(=O)N2 (configuration not stated) with Plasmodium berghei and state it.
Response: 47.85

Request: Recall the recorded INHIBITION for CC(=O)N1CC2(CCN(C(=O)c3ccc4c(c3)OCCO4)CC2)C1 with Plasmodium berghei and state it.
Response: 65.54

Request: Recall the recorded INHIBITION for CCOc1cccc(C(=O)Nc2ccn(CC)n2)c1 with Plasmodium berghei and state it.
Response: 6.64

Request: Recall the recorded INHIBITION for N#CC1(C(=O)N2CCN(Cc3cscn3)CC2)CCCCC1 with Plasmodium berghei and state it.
Response: 52.17

Request: Recall the recorded INHIBITION for CCn1ccc(CNC(=O)c2cc(OC)cc(OC)c2)n1 with Plasmodium berghei and state it.
Response: 65.06

Request: Recall the recorded INHIBITION for O=C(NCc1nnc2n1CCCC2)c1ccc(C2CCCO2)s1 (configuration not stated) with Plasmodium berghei and state it.
Response: 29.22
